Reference source for all entries: ChEMBL document CHEMBL1124060

Species: Oryctolagus cuniculus
Assay: In vitro inhibition of development of isometric tension, in response to norepinephrine (NE, 10 uM) in rabbit aorta
Type: functional
API: label(entry) gives fulfilled if the entry's Change is strictly smaller than -20%; on equality or larger values it gives not fulfilled.

// known answers, use as guide
compound	group
COc1ccc(C#Cc2ccccc2)c(CCC(C)N(C)CCc2ccc(OC)c(OC)c2)c1 (stereo unspecified)	fulfilled
COc1cc(CCN(C)C(C)Cc2cc(OC)ccc2C#Cc2ccccc2)cc(OC)c1 (stereo unspecified)	fulfilled
COc1ccc(C#Cc2ccccc2)c(CC(C)NCCc2ccc(Cl)c(Cl)c2)c1 (stereo unspecified)	not fulfilled
COc1ccc(C#Cc2ccccc2)c(CC(C)NCCc2ccc(OC)c(OC)c2)c1 (stereo unspecified)	fulfilled
COc1ccc([C@@H]2Sc3ccccc3N(CCN(C)C)C(=O)[C@@H]2OC(C)=O)cc1	not fulfilled

Here is another compound to look at.
Does the reported Change of the following compound sit strictly below -20%? COc1ccc(CCN(C)CCCC(C#N)(c2ccc(OC)c(OC)c2)C(C)C)cc1OC (stereo unspecified) not fulfilled
